meta.source: patent US20200157194A1

Target: T1, recombinant human GREM1 (hGREM1-His; C-terminal 10His tagged, R&D, #5190-GR) (human, UniProt O60565 25-184)
T1 construct: range 25-184; also called recombinant human GREM1 with a C-terminal decahistidine tag
T1 sequence: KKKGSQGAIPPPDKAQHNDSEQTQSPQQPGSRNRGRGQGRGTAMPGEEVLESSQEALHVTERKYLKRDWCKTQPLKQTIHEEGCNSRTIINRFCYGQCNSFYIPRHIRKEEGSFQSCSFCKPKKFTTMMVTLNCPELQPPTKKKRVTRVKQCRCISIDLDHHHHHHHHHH
Assay: BLI Octet, mAb captured, 100 nM GREM1;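 also: octet Red96 biolayer interferometry at 25 °C in pH 7.4 HEPES saline buffer, antibodies held on anti-human IgG Fc capture biosensors, then exposed to GREM1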
Quick list: Binding Signal with 30 sec Association per entry.
Your answer should be a plain number; it is taken to be in nm.

Reference set, count: 2
H4H6243P (antibody, human IgG4, V domains shown, H4H prefix = human IgG4 Fc) VH: QVQLVQSGAEVKKPGASVKVSCKVSGYTLTELSMHWVRQAPGKGLEWMGGFDPEDGETIYAQKFQDRVTMTEDTSTDTAYMELSSLRSEDTAVYYCVTDDYEILPEYPYNMDVWGQGTTVTVSS VL: DIQMTQSPSSLSASVGDRVTITCRASQSISTYLNWYQQKPGKAPKLLIYAASSLQSGVPSRFSGSGSGTDFTLTIRSLQPEDFATYYCQQSHITPFTFGPGTKVDIK : 0.3
H4H6256P (antibody, human IgG4, V domains shown, H4H prefix = human IgG4 Fc) VH: QVQLVESGGGVVQPGRSLRLSCAASGFTFSAYGMHWVRQGPGKGLEWVAVIWYDGSNKYYADSVKGRFTISRDNSKNTLYLQMNRLRAEDTAVYYCARDDYGDSPGFDHWGQGTLVTVSS VL: EIVMTQSPATLSVSPGERATLSCRASQSVSSELAWYQQKPGQAPRLLLYGASTRATGIPARFSGSGSGTEFTLTISSLQSEDFAVYYCQQYSNWPPWTFGQGTKVEIK : 0.2

// switching to the query binder
**Query** Looking for the measured Binding Signal with 30 sec Association of H4H6252P (antibody, human IgG4, V domains shown, H4H prefix = human IgG4 Fc; also called H4H6252S) VH: QVQLVESGGGVVQPGRSLRLSCAASGFTFSNYGMHWVRQAPGRGLEWVAVIWFDGSNKYYADSVKGRFTISRDNSKNTLYLQMNSLRSEDTAVYYCTRDDYGDYDYPFDYWGQGTLVTVSS VL: DIQMTQSPSSLSASVGDRVTITCRASQGIRNDLGWYQQKPGKAPKRLIYAASSLQSGVPSRFSGSGSGTEFTLTISSLQPEDFATYYCLQYNTYPPFTFGPGTKVDIK , can you help?
**Result** 0.23
